# target.entity: PfDHFS–FPGS (FPGS activity) (Plasmodium falciparum, UniProt Q8IE69)
# Sequence (Q8IE69 entry or part of it): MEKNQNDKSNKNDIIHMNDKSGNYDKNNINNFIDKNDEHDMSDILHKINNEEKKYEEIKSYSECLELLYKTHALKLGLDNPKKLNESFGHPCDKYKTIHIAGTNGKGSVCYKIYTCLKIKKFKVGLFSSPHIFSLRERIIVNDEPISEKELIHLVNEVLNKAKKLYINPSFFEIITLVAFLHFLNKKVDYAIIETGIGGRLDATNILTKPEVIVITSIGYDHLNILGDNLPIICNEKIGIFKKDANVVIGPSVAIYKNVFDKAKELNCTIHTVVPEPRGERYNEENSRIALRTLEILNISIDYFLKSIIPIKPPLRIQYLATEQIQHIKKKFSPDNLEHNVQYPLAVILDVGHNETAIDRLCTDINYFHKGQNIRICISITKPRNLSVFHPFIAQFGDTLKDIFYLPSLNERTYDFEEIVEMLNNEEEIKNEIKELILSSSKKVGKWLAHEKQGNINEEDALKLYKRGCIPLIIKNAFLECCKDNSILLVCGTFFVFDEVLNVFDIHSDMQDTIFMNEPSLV
recorded.metric: IC50 (nM)
// note: answer is a bare numeric in nM

Query (molecule): Nc1nc2c(c(=O)[nH]1)N=C(CNc1ccc(C(=O)N[C@@H](CCP(=O)(O)CC(CCC(=O)O)C(=O)O)C(=O)O)cc1)CN2 (stereo partly shown) ; field requested: IC50
390

* * *

# target.entity: PfDHFS–FPGS (DHFS activity) (Plasmodium falciparum)
# Sequence (Q8IE69 entry or part of it): as above
# protocol.description: DHFS assay of recombinant PfDHFS–FPGS ([14C]glutamate incorporation)
# experimental.setup: best-fit model a; ATP 6 μM to 5 mM, glutamate 25 μM to 1 mM; n = 15; read-out: dissociation constant KABCA for the substrate (DHP) inhibition (inhibitory site)
recorded.metric: pKd
Please note pKd is a logarithmic value: minus log10 of concentration in mol/L. Answer with that number alone.

Query (compound): Nc1nc2c(c(=O)[nH]1)N=C(CNc1ccc(C(=O)O)cc1)CN2 [DHP, 7,8-dihydropteroate] ; field requested: pKd
5.90

* * *

Measured Ki on UniProt Q8IE69 follows.
// note: answer is a bare numeric in nM

Nc1nc2c(c(=O)[nH]1)N=C(CNc1ccc(P(=O)(O)CC(CCC(=O)O)C(=O)O)cc1)CN2 (centres unmarked) :: 630

Please find the next molecule below.
Query (molecule): Nc1nc2c(c(=O)[nH]1)N=C(CNc1ccc(C(=O)N[C@@H](CCP(=O)(O)CC(CCC(=O)O)C(=O)O)C(=O)O)cc1)CN2 (some centres unmarked) ; field requested: Ki
91

* * *

Listed here: items and their measured pKi.
# target.entity: PfDHFS–FPGS (DHFS activity) (Plasmodium falciparum)
# protocol.description: DHFS assay of recombinant PfDHFS–FPGS ([14C]glutamate incorporation)
Please note pKi is a logarithmic value: minus log10 of concentration in mol/L. Answer with that number alone.

Nc1nc2c(c(=O)[nH]1)N=C(CNc1ccc(P(=O)(O)CC(CCC(=O)O)C(=O)O)cc1)CN2 (centres unmarked) [H2-1] :: 6.85

Please find the next compound below.
Query (compound): Nc1nc2c(c(=O)[nH]1)N=C(CNc1ccc(C(=O)N[C@@H](CCP(=O)(O)CC(CCC(=O)O)C(=O)O)C(=O)O)cc1)CN2 (some centres unmarked) [H2-2] ; field requested: pKi
5.77
